ASSAY_COMMENT: Toxicokinetics, plasma LPM3480392 after intravenous administration
Assay type: in vivo, Sprague Dawley (SD) rats
ASSAY_CONDITIONS: female, Sprague-Dawley, rat, plasma, iv, 0.6 mg/kg/day, 0.6 mg/kg/day iv; 28th dosing day; F; read-out: AUC0–12h
MEASUREMENT_NAME: AUC(0-t) (ng·h/mL)
Express the result in ng·h/mL but write the number alone.

## Task For the compound "Fc1ccc([C@]2(CCNCc3cccc(Cl)c3)CCO[C@]3(CCOC3)C2)nc1" , give its measured AUC(0-t) value.
## Result 331

###

ASSAY_COMMENT: Toxicokinetics, plasma LPM3480392 after intravenous administration
Type: in vivo, Sprague Dawley (SD) rats
ASSAY_CONDITIONS: both sexes, Sprague-Dawley, rat, plasma, intravenous, 0.6 mg/kg/day, 0.6 mg/kg/day iv; 28th dosing day; F + M; read-out: C2min (The 3rd dosing)
MEASUREMENT_NAME: concentration at 2 min (ng/mL)
Express the result in ng/mL but write the number alone.

## Task For the compound "Fc1ccc([C@]2(CCNCc3cccc(Cl)c3)CCO[C@]3(CCOC3)C2)nc1" , give its measured concentration at 2 min value.
## Result 73.9
